Target system: UniProt Q15109
Sequence (Q15109 whole entry): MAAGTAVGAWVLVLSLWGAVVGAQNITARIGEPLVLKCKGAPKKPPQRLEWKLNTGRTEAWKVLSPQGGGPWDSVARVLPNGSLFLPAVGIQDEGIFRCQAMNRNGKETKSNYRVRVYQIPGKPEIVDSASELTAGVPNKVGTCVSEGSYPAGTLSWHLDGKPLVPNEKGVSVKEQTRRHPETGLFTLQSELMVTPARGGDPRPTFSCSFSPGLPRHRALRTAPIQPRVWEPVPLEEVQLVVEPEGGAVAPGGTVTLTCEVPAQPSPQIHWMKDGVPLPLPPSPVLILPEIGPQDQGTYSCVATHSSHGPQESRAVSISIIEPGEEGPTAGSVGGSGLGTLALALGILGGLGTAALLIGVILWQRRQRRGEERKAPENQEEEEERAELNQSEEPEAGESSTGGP
Assay name: Inhibition of human recombinant biotinylated receptor for advanced glycation end product expressed in Escherichia coli DE3 assessed as inhibition of binding to amyloid beta (1 to 42) at 20 uM after 60 mins by TMB-ELISA
Measured inhibition, listed per entry for reference.

Study these solved cases before continuing.
>  <Input smiles>
CCN(CC)CCOc1ccc(Nc2nc(C)cc(-c3ccc(OC4CCCCC4)cc3)n2)cc1

>  <Target system>
UniProt Q15109

>  <Readout>
inhibition

>  <Readout value>
32.6%

$$$$
>  <Input smiles>
CCN(CC)CCOc1ccc(Nc2nc(C)cc(C3CCCCC3)n2)cc1

>  <Target system>
UniProt Q15109

>  <Readout>
inhibition

>  <Readout value>
30.6%

$$$$
>  <Input smiles>
CCN(CC)CCOc1cccc(Nc2nc(-c3ccc(Cl)cc3)cc(-c3ccc(Cl)cc3)n2)c1

>  <Target system>
UniProt Q15109

>  <Readout>
inhibition

>  <Readout value>
54%

$$$$
>  <Input smiles>
CCN(CC)CCOc1ccc(Nc2nc(C)cc(-c3ccccc3)n2)cc1

>  <Target system>
UniProt Q15109

>  <Readout>
inhibition

>  <Readout value>
33%

$$$$
>  <Input smiles>
CCN(CC)CCOc1ccc(Nc2nc(C)cc(-c3ccc(OCCC4CCCCC4)cc3)n2)cc1

>  <Target system>
UniProt Q15109

>  <Readout>
inhibition

>  <Readout value>
32.7%

$$$$
>  <Input smiles>
CCN(CC)CCOc1cccc(Nc2nc(C)cc(-c3ccc(OCCC4CCCCC4)cc3)n2)c1

>  <Target system>
UniProt Q15109

>  <Readout>
inhibition

>  <Readout value>
49.6%

$$$$

## Input Return the recorded inhibition value; entry: CCN(CC)CCOc1cccc(Nc2nc(C)cc(-c3ccc(OC4CCCCC4)cc3)n2)c1
## Output 45.6%
